- System: SF-268 CNS
- assay-procedure: NCI tumour cell line growth inhibition, 48 h; in the data active = GI50 below about 0.43 µM; inactive = the rest
Classes used: YES = active, NO = inactive

# molecule, tgt, category-label
rows = [
    ("Clc1ccc(N/N=C/c2ccccn2)nc1", "SF-268 CNS", "YES"),
    ("O=C(Nc1cccc(-n2cc(-c3ccncc3)c(-c3cc(O)cc(Cl)c3)n2)c1)Nc1ccc(Cl)c(Cl)c1", "SF-268 CNS", "NO"),
    ("Cc1cc(N2CCOCC2)nc(N(CCNc2ccnc3cc(Cl)ccc23)Cc2ccco2)n1", "SF-268 CNS", "NO"),
    ("Nc1nn(C(=O)Nc2ccc(Cc3ccccc3)cc2)c2ccc(Cl)cc12", "SF-268 CNS", "NO"),
    ("COC(=O)c1c2c(c[n+]([O-])c1C)C(=O)C(NCc1ccccc1)=CC2=O", "SF-268 CNS", "NO"),
    ("CN(C)c1cc2c(Nc3ccc4nc(Cc5ccccc5)[nH]c4c3)ncnc2cn1", "SF-268 CNS", "NO"),
    ("CCS(=O)(=O)c1ccc(OC)c(Nc2ncc(-c3cccc(-c4ccccc4F)c3)o2)c1", "SF-268 CNS", "NO"),
    ("CC(C)[C@@H]1NC(=O)[C@]2(C)CSC(=N2)c2csc(n2)CNC(=O)C[C@@H](/C=C/CCS)OC1=O", "SF-268 CNS", "YES"),
    ("CCCCCCCCCCCCCCCCCC(=O)[O][Sn]([CH2]CCC)([CH2]CCC)[CH2]CCC", "SF-268 CNS", "YES"),
    ("Nc1ccccc1C#Cc1ccccc1C#Cc1ccccc1N", "SF-268 CNS", "NO"),
    ("COc1ccc(S(=O)(=O)Nc2cc(/C=C\\c3cc(OC)c(OC)c(OC)c3)cc(OC)c2OC)cc1OC", "SF-268 CNS", "NO"),
    ("Cc1nc(NC(=O)COc2cccc(/C=C3\\COc4ccccc4C3=O)c2)sc1C", "SF-268 CNS", "NO"),
    ("NC(=O)Cc1ccccc1Oc1nccc(-c2c(-c3ccc(F)cc3)ncn2C2CCNCC2)n1", "SF-268 CNS", "NO"),
    ("O=Cc1ncc(-c2ccc(C(F)(F)F)cc2)c(NC2CCCCCC2)n1", "SF-268 CNS", "NO"),
    ("Clc1cccc(Cn2cc(Cc3cn(Cc4cccc(Cl)c4)c4ccccc34)c3ccccc32)c1", "SF-268 CNS", "NO"),
    ("COc1cccc(C2=NN(C(C)=O)C(c3cc(OC)c(OC)c(OC)c3)C2)c1 (stereo unspecified)", "SF-268 CNS", "NO"),
]

* * *

- Test system: HT29 colon
- assay-procedure: NCI tumour cell line growth inhibition, 48 h
measured-quantity: log10 TGI (log10 of the value in µM)

# compound, experimental-value
measured = [
    ("COC1OC(COCc2ccc(Cl)cc2)C(OCc2ccc(Cl)cc2)C1O (stereo not given)", 1.52),
    ("Cc1cc(NC(=O)NC(=O)c2ccccc2[N+](=O)[O-])ccc1Oc1ncc(Cl)cn1", 0.53),
    ("O=[n+]1cnn([O-])c2ccccc21", 1.61),
    ("O=C(CSc1nc2ccc(Cl)cc2c(=O)n1-c1ccccc1)N=Nc1c(O)[nH]c2ccc(F)cc12", 0.60),
    ("Nc1nn(C(=O)Nc2ccc(Cc3ccccc3)cc2)c2ccc(Cl)cc12", 1.44),
]

* * *

- Tested on: MOLT-4 leukemia
- assay-procedure: NCI tumour cell line growth inhibition, 48 h; in the data active = GI50 below about 0.43 µM; inactive = the rest
Classes used: active, inactive

# compound, category-label
data = [
    ("COc1ccc(S(=O)(=O)Nc2cc(/C=C\\c3cc(OC)c(OC)c(OC)c3)cc(OC)c2OC)cc1OC", "inactive"),
    ("C=C1C(=O)O[C@H]2[C@H]1CC/C(COC(=O)NCc1c[nH]c3ccc(OC)cc13)=C\\CC[C@@]1(C)O[C@@H]21", "inactive"),
    ("CCCCC(SC(=S)N(CC)CC)C(=O)Nc1nc(CC(=O)OCC)cs1 (configuration not stated)", "inactive"),
    ("O=C1OCC2=C1C(c1cccc([N+](=O)[O-])c1)c1cc3c(cc1N2CCO)CCC3 (configuration not stated)", "active"),
    ("Nc1ccccc1C#Cc1ccccc1C#Cc1ccccc1N", "inactive"),
    ("O=C(c1ccc(F)c(F)c1Nc1ccc(I)cc1F)N1CC(O)([C@H]2CCCCN2)C1", "inactive"),
    ("O=[N+]([O-])c1ccc(Oc2cccnc2)c([N+](=O)[O-])c1", "inactive"),
    ("O=C(O[C@H]1CN[C@H](C#Cc2cc3ncnc(Nc4ccc(Cc5ccccc5)cc4)c3s2)C1)N1CCOCC1", "inactive"),
    ("Cn1c(=O)c(Sc2ccccc2F)cc2cnc(NC3CCOCC3)nc21", "inactive"),
    ("COC(=O)C1=C(C(=O)Nc2cccnc2)C2OC1(C(Cc1ccccc1)Oc1ccccc1)C1OC21 (configuration not stated)", "inactive"),
    ("Cc1oncc1C(=O)Nc1ccc(C(F)(F)F)cc1", "inactive"),
    ("COc1cccc(C2=NN(C(C)=O)C(c3cc(OC)c(OC)c(OC)c3)C2)c1 (configuration not stated)", "inactive"),
]

* * *

- Test system: MDA-MB-231 breast
- assay-procedure: NCI tumour cell line growth inhibition, 48 h

# molecule, tgt, TGI
data = [
    ("CNC(=O)c1cc(Oc2ccc3nc(NC(=O)c4cc(C(F)(F)F)cc(C(F)(F)F)c4)sc3c2)ccn1", "MDA-MB-231 breast", "6.63 µM"),
    ("Nc1cccc(-c2nc3sccn3c2-c2ccnc(NCCCNS(=O)(=O)c3ccc(C(F)(F)F)cc3)n2)c1", "MDA-MB-231 breast", "94 µM"),
    ("NC(=S)SC1=NNC2(C(=O)N1)c1ccccc1-c1ccccc12", "MDA-MB-231 breast", "> 10 µM"),
    ("Cc1cc(O)c2c(c1O)C(=O)c1c(O)ccc(O)c1C2=O", "MDA-MB-231 breast", "> 100 µM"),
    ("C[CH2][Sn]1([CH2]C)[O]C2C(O)OC(CO)C(O)C2[O]1 (stereo not given)", "MDA-MB-231 breast", "28.6 µM"),
    ("CC(=O)Oc1ccn2nc(C)c(Cc3c(C)nn4ccc(OC(C)=O)cc34)c2c1", "MDA-MB-231 breast", "> 100 µM"),
    ("O=C(CN1CCOCC1)c1ccc2[nH]c(=O)oc2c1", "MDA-MB-231 breast", "> 100 µM"),
    ("CCNC(=O)Nc1ccc(-c2nc3c(c(N4CCOC[C@@H]4C)n2)CCN(C2COC2)C3)cc1", "MDA-MB-231 breast", "> 48.2 µM"),
    ("CC(=O)O[C@@]12[C@@H]3O[C@@]4(O)C[C@]5(C)[C@H]6C[C@@](C(C)C)(O[C@H]5c5ccoc5)O[C@H]1[C@]6(C4)O[C@]2(O)C(C)=CC3(C)C", "MDA-MB-231 breast", "> 100 µM"),
    ("CCS(=O)(=O)c1ccc(OC)c(Nc2ncc(-c3cccc(-c4ccccc4F)c3)o2)c1", "MDA-MB-231 breast", "> 25 µM"),
]

* * *

- Test system: MOLT-4 leukemia
- assay-procedure: NCI tumour cell line growth inhibition, 48 h; in the data active means GI50 below about 0.43 µM; inactive means the rest
Classes used: y for active, n for inactive

# molecule, category-label
data = [
    ("CN(C)c1cc2c(Nc3ccc4nc(Cc5ccccc5)[nH]c4c3)ncnc2cn1", "n"),
    ("CC(C)[C@@H]1NC(=O)[C@]2(C)CSC(=N2)c2csc(n2)CNC(=O)C[C@@H](/C=C/CCS)OC1=O", "y"),
    ("NC(=O)Cc1ccccc1Oc1nccc(-c2c(-c3ccc(F)cc3)ncn2C2CCNCC2)n1", "n"),
    ("CN(C)c1cc2c(cc1Sc1nc3c(N)nccc3n1CCNCC(C)(C)C)OCO2", "y"),
    ("C[C@H]1O[C@@H](O[C@H]2[C@@H](O)C[C@H](O[C@H]3[C@@H](O)C[C@H](O[C@H]4CC[C@]5(C)C6C[C@@H](O)[C@]7(C)[C@@H](C8=CC(=O)OC8)CC[C@]7(O)C6CC[C@@H]5C4)O[C@@H]3C)O[C@@H]2C)C[C@H](O)[C@@H]1O (stereo not given in full)", "y"),
]

* * *

TGI: recorded values
- Tested on: SK-MEL-2 melanoma
- assay-procedure: NCI tumour cell line growth inhibition, 48 h
measured-quantity: TGI

# compound, experimental-value
measured = [
    ("Nc1nc(N)nc(-c2cnc3ccccc3c2)n1", "> 100 µM"),
    ("O=[n+]1cnn([O-])c2ccccc21", "96.2 µM"),
    ("CCN(CC)C(=O)C1=C(C)NC(C)=C(C(=O)N(CC)CC)C1", "> 100 µM"),
    ("CCOC(=O)CC(=O)N(c1ccc(OC)cc1)C(C(=O)OC)c1ccccc1 (stereo unspecified)", "> 100 µM"),
    ("Cc1ccccc1NC(=O)N/C(N)=N/c1nc2ccccc2s1", "> 100 µM"),
    ("O=C(c1ccc(F)c(F)c1Nc1ccc(I)cc1F)N1CC(O)([C@H]2CCCCN2)C1", "0.702 µM"),
]
